I'd be grateful if you could share measured koff for these entries.
- measuredOn: T1, cyno PRLR (Biacore antigen) (cyno, UniProt A0A2K5WXK1 25-234)
- T1 construct: also called cyPRLR
- T1 sequence: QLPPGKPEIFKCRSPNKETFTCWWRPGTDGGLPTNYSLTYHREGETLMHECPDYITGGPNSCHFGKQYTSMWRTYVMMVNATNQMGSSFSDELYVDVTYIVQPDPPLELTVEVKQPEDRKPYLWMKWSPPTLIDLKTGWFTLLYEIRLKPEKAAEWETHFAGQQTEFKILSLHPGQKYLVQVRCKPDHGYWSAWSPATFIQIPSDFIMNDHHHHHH
- measurementDescription: SPR Biacore
The reply should contain only the number, in s⁻¹.

Inquiry: # get_value(readout='koff', item= chAb6 (antibody, human IgG1, kappa, V domains shown, chimeric, murine variable and human G1/kappa constant regions) VH: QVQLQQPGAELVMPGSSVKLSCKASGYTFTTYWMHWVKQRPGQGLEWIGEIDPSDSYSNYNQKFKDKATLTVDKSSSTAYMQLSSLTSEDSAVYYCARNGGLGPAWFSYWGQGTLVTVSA VL: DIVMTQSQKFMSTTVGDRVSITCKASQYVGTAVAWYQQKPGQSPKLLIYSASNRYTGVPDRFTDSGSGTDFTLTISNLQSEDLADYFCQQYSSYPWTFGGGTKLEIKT )
Reply text: 0.00103

Inquiry: Please give the measured koff for this binder: Ab53 (antibody, human IgG1, kappa, V domains shown, humanized from Ab7 (back mutations on Ab36); G1; also called Ab4 HC.1b.2 and Ab4 LC.1a) VH: EVQLVQSGAEVKKPGSSVKVSCKASGYTFTSYWIHWVRQAPGQGLEWIGEIDPSDSYTNYNQKFKGRVTITVDKSTSTAYMELSSLRSEDTAVYYCARSFFTNWFAYWGQGTLVTVSS VL: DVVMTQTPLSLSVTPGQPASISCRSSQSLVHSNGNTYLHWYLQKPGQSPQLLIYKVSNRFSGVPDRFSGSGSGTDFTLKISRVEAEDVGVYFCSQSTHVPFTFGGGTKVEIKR
Reply text: 0.00089

Inquiry: Name the recorded koff for Ab54 (antibody, human IgG1, kappa, V domains shown, humanized from Ab7 (back mutations on Ab39); G1; also called Ab4 HC.1a.3 and Ab4 LC.1a) VH: EVQLVQSGAEVKKPGSSVKVSCKASGYTFTSYWIHWVRQAPGQGLEWIGEIDPSDSYTNYNQKFKGRATLTVDKSSSTAYMELSSLRSEDTAVYYCGRSFFTNWFAYWGQGTLVTVSS VL: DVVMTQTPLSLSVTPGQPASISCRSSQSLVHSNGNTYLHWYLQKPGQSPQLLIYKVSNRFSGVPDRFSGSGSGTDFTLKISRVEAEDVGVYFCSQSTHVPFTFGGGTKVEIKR .
Reply text: 0.00012
